assay-name: H1N1 influenza NS1A inhibitors, functional cell based assay (AID 504329)
condition-details: percent inhibition, at 12.5 µM, stronger effect = higher value
The whole screen tested about 340,000 compounds, of which about 1,000 (0.29%) were called active. Not all results are given here. Potency and affinity values are given separately.
measured-metric: inhibition (%)
Record the value in %, omitting the unit from your answer.

For reference, reported inhibition for Cc1cc(C)nc(NN2C(=O)C=CC2=O)n1 stands at 0.34

Reported inhibition of O=C(CC(NS(=O)(=O)c1ccc(Cl)cc1)c1ccco1)NCc1ccco1 (configuration not stated) : -0.25

Documented inhibition of Cc1onc(-c2c(F)cccc2Cl)c1C(=O)c1ccccc1 : 20

GET /value?item= Cc1cccc(C)c1NC(=O)CN(C)C(=O)c1cccc(S(=O)(=O)N2CCN(c3ccccc3)CC2)c1 &field=inhibition returns 1.58

Record summary for COC(=O)c1ccccc1NC(=O)c1cccc(NC(=O)C(C)C)c1 : reported inhibition = -5.47

Just so you know, measured inhibition for Cc1ccc(/C=N/NC(=O)C(C)NC(=O)c2ccccc2)cc1 (configuration not stated) came out at -0.33

So for Cc1cc(C)nc(NC(N)=NCCc2ccccc2)n1 , the logged inhibition turned out to be -1.52

inhibition for COc1ccc(-c2cc(-c3ccccc3)[n+](C)c(-c3ccccc3)c2)cc1 is -1.4

Per the record, CN(C)c1ccc(-c2n(C)c3ccccc3[n+]2C)cc1 has inhibition of 28.5

Please fill in: inhibition reported for Cc1ccc2c(c1)-c1c(ssc1=S)C(C)(C)N2C(=O)CN1C(=O)c2ccccc2C1=O = 28.5

Lab book: inhibition of CN(C)C(=O)CCc1ccc2c3c([nH]c2c1)[C@]1(C)[C@@H](C(=O)N2CCCCC2)C[C@H](CC(=O)NCCN2CCOCC2)C(=O)N1CC3 noted as 8.89

Record O=C(CNCc1cccc(Cl)c1)N1CCc2ccccc2C1 , field inhibition: -4.83

Lab note: measured inhibition of Cc1cc2c(cc1C)N(C(=O)CSC1=NCCS1)C(C)(C)c1ssc(=S)c1-2 was 14.7

Just so you know, measured inhibition for C[n+]1c(-c2ccccc2)cc2c(=Cc3ccccc3)c3ccccc3n21 came out at -16.8

Note to self: inhibition recorded for CCCCC1(C)OC(=O)C(=Cc2ccc(N(C)C)cc2)C(=O)O1 (configuration not stated) was 0.99

Lab book: inhibition of COc1ccc(CCc2nnc(N)s2)cc1OC noted as -1.61

The compound CN(C)c1ccc(/C=N/c2cc(-c3ccccc3)nn2-c2ccccc2)cc1 showed inhibition equal to -1.42

The recorded inhibition for entry O=C(O)c1cc(S(=O)(=O)N2CCCCC2)sc1Cl equals 0.17

GET /value?item= CCC(CC)CN1CCC(CN2C(=O)C(=O)NC[C@@H]2[C@@H](C)CC)CC1 &field=inhibition returns -5.8

Given item CCOC(=O)c1cc(S(=O)(=O)NC2CCC(C)CC2)cn1C (configuration not stated) , the value recorded as its inhibition is -6.39

The reported inhibition of the compound CN(C)c1ccc(/C=C2\SC(=O)N(CC(O)Cn3c4ccccc4c4ccccc43)C2=O)cc1 (configuration not stated) was -1.11

Record Cc1ccc(C)c(SCC(=O)NC2CCS(=O)(=O)C2)c1 (configuration not stated) . Reported inhibition: -12.1
